Would you mind telling me the reported IC50 of each entry?
Measured Target: T1, recombinant human CTLA4 protein with human IgG1 Fc tag at the C-terminus (Acro biosystems, Cat#CT4-H5255) (human, UniProt P16410 37-162)
T1 construct: bought protein; also called human CTLA4-Fc; CTLA4-Fc; not shown: human IgG1 Fc tag at the C-terminus
T1 sequence (looked up): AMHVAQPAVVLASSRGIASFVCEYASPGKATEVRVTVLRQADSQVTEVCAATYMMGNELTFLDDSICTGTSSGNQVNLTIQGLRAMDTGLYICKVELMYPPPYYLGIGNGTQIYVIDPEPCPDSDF
Assay Details: competitive ELISA: antibody pre-mixed with biotin human CTLA4-Fc (65 ng/ml), added to plate coated with the benchmark; competitor: coated Yervoy
Report field: quantity (unit follows the number).

>>> measured("mouse anti-CTLA4 monoclonal antibody D2A4 (antibody, V domains shown, mouse mAb purified from hybridoma supernatant) VH: QVQLQQPGAELVKPGSSVNLSCKASGYTFTSYWVHWVKQGPGRGLEWIGRIDPNRGGTYYNENFKTKAALTVDSPSSTAYMHLSSLTSEDSAVYYCARGGLNYYALDYWGQGTSVTVSS VL: DIQMTQSPASLFASLGETVTITCRASENIYSYLAWYQQKQGKSPQLLVYNANTLTEGVPSSFSGSGSGTQFSLKINTLQPEDFGTYYCQHHYGIPFTFGSGTKLEIK")
"3.85 nM"
>>> measured("mouse anti-CTLA4 monoclonal antibody D1G6 (antibody, V domains shown, mouse mAb purified from hybridoma supernatant) VH: EVQLQQSGPELVKPGASVKLSCKASGNTFTTYVLNWVKQKPGQGLEWIGYFNPYNDAIKYNEKFKGKATLTSDKSSSTAYMELSSLTSEDSAVYYCARFEGGGYAMDYWGQGTSVTVSS VL: DIVLTQSPASLAVSLGQRATISCRASQSVGTSSYSYIHWYQQKPGQPPKLLIKYASDLESGVPARFSGSGSGTDFTLNIHPVEEEDTATYYCQHSWEIPYTFGGGTKLEIK")
"0.445 nM"

Consider the record given below.
*Q* // query IC50 value for entry mouse anti-CTLA4 monoclonal antibody C1D1 (antibody, V domains shown, mouse mAb purified from hybridoma supernatant) VH: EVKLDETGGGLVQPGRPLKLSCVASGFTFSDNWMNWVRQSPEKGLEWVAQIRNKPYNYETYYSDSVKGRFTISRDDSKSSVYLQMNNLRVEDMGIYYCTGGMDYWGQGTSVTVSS VL: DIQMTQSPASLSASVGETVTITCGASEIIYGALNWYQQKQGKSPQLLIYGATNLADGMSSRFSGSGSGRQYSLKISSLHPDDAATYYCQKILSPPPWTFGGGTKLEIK
*A* 0.338 nM
